Structures can show the parent of a compound that is named as a salt.
measured_property: melting point

Sample CN(C)CCn1cnc2ccccc21.O=C(O)/C=C/C(=O)O ; melting point observed: 171 to 178 °C

Sample COc1ccc2c(ccn2CCN(C)C)c1.O=C(O)/C=C/C(=O)O ; melting point observed: 140 to 142 °C

Sample CN(C)CCCn1ccc2ccccc21.O=C(O)/C=C/C(=O)O ; melting point observed: 129 to 131 °C

Sample CN(C)CCn1ccc2cc(F)c(F)cc21 (as salt: fumarate) ; melting point observed: 162 to 165 °C

Sample CN(C)CCn1cccc1 (as salt: fumarate) ; melting point observed: 174 to 180 °C

Sample CN(C)CCn1ccc2cc(F)ccc21 (as salt: fumarate) ; melting point observed: 145 to 148 °C

Sample CN(C)CCc1cn(C)c2ccccc12 (as salt: fumarate) ; melting point observed: 167 to 170 °C

Sample CN(C)CCn1ccc2cc(Br)ccc21.O=C(O)/C=C/C(=O)O ; melting point observed: 140 to 142 °C

Sample CN(C)CCn1ccc2ccc(F)cc21.O=C(O)/C=C/C(=O)O ; melting point observed: 141 to 147 °C

Sample CN(C)CCn1ccc2ccccc21.O=C(O)/C=C/C(=O)O ; melting point observed: 147 to 149 °C

Sample CN(C)CCn1ccc2cccc(F)c21 (as salt: fumarate) ; melting point observed: 168 to 170 °C

Sample CN(C)CCn1ccc2cc(OCc3ccccc3)ccc21 (as salt: fumarate) ; melting point observed: 133 to 135 °C

Sample COc1cccc2c1ccn2CCN(C)C.O=C(O)/C=C/C(=O)O ; melting point observed: 140 to 145 °C

Sample Cc1cc2ccccc2n1CCN(C)C.O=C(O)/C=C/C(=O)O ; melting point observed: 131 to 133 °C

Sample CN(C)CCn1ccc2c(F)cc(F)cc21 (as salt: fumarate) ; melting point observed: 141 to 145 °C

Sample CN(C)C(=O)Cn1ccc2ccccc21 [Example 31, 2-(1H-indol-1-yl)-N,N-dimethylacetamide] ; melting point observed: 58 to 61 °C

Sample COc1cccc2ccn(CCN(C)C)c12.O=C(O)/C=C/C(=O)O ; melting point observed: 120 to 123 °C

Sample CN(C)CCn1c2ccccc2c2ccccc21.O=C(O)/C=C/C(=O)O ; melting point observed: 182 to 184 °C

Sample CN(C)CCn1ccc2ccc([N+](=O)[O-])cc21.O=C(O)/C=C/C(=O)O ; melting point observed: 159 to 164 °C

Sample CN(C)CCn1ccc2c(OCc3ccccc3)cccc21 (as salt: fumarate) ; melting point observed: 145 to 150 °C

Sample CN(C)CCn1ccc2c(F)cccc21 (as salt: fumarate) ; melting point observed: 145 to 149 °C
